remaining at 10 min by entry:
Test: Metabolic stability of the compound in human liver microsomes assessed as compound remaining after 10 mins
Type: ADME
Details: read-out: Stability

{"COMPOUND SMILES": "O=C(NC1CCCC1)N[C@@](Cc1ccccc1)(c1cc(F)cc(OC(F)(F)C(F)F)c1)c1ccc(Cl)cn1", "SCALE UNIT": "%", "remaining at 10 min": 10}
{"COMPOUND SMILES": "Fc1cc(OC(F)(F)C(F)F)cc([C@@](Cc2ccccc2)(Nc2nc(C(F)(F)F)cs2)c2ccc(Cl)cn2)c1", "SCALE UNIT": "%", "remaining at 10 min": 98}
{"COMPOUND SMILES": "Cc1sc(N[C@](Cc2ccccc2)(c2cc(F)cc(OC(F)(F)C(F)F)c2)c2ccc(Cl)cn2)nc1C(F)(F)F", "SCALE UNIT": "%", "remaining at 10 min": 82}
{"COMPOUND SMILES": "Fc1cc(OC(F)(F)C(F)F)cc([C@@](Cc2ccccc2)(Nc2nc3cc(F)ccc3[nH]2)c2ccc(Cl)cn2)c1", "SCALE UNIT": "%", "remaining at 10 min": 56}
